The reported numbers originate from PubChem BioAssay (NCI).

tested on: BT-549 breast; experiment: NCI tumour cell line growth inhibition, 48 h
Classification field: enter y for TGI values not below 6 µM, n for values below it.

A selection of reference data follows.
molecule: OC1CCC(C2C3CCCCC3C3CCCCC3C2C2CCC(O)CC2)CC1 (stereo unspecified)
tgt: BT-549 breast
labelValue: y
//
molecule: CN(C)CCOc1ccc(-c2c(Oc3ccc(Cl)cc3)c(=O)oc3ccccc23)cc1
tgt: BT-549 breast
labelValue: y
//
molecule: CN(C)Cc1cc(N=Nc2ccc(Cl)c(Cl)c2)ccc1O
tgt: BT-549 breast
labelValue: y

Incoming: Form field: TGI at least 6 µM? Entry: CCCCCC(C)C[C@H]1CO[C@H](c2ccc[nH]2)N[C@H]1C(=O)OC (stereo partly specified)
Outgoing: y

Incoming: Check this molecule for TGI at or above 6 µM: Cc1ccc(-c2cc3nc(-c4ccccc4)nc(C(Cl)Cl)n3n2)cc1
Outgoing: y

Incoming: Please indicate if the recorded TGI for NC(N)=NNC(=O)C(=O)O meets or exceeds 6 µM.
Outgoing: y

Incoming: Can Cc1ccc2c3c1O[C@H]1c4nc5ccccc5cc4C[C@@]4(O)[C@@H](C2)N(CC2CC2)CC[C@]314 be said to have TGI at or above 6 µM?
Outgoing: y

Incoming: Threshold query (TGI >= 6 µM) on NNC(=O)c1ccccc1NC(=O)/C(=C/c1ccccc1)NC(=O)c1ccccc1
Outgoing: y
